Non-standard residues stand in square brackets, D forms with d. Residues, ends and D or L forms follow the SMILES beside them. *: point of attachment. X1 = O=C(O)c1cc(NC(=S)*)ccc1-c1c2ccc(=O)cc-2oc2cc(O)ccc12; Lys(Me3) = C[N+](C)(C)CCCC[C@H](N)C(=O)O; βAla = NCCC(=O)O
measurement.type: Kd (µM)
Use µM as the unit, but write only the number.

Kd value, target or system Chromobox protein homolog 1 (Homo sapiens), for CC(C)C[C@H](NC(=O)[C@H](C)NC(=O)[C@H](Cc1ccccc1)NC(=O)CCNC(=S)Nc1ccc(-c2c3ccc(=O)cc-3oc3cc(O)ccc23)c(C(=O)O)c1)C(=O)N[C@@H](CCCC[N+](C)(C)C)C(=O)N[C@@H](CO)C(N)=O ({X1-βAla}-FAL[Lys(Me3)]S-NH2) : 2.5
